Reported values: pIC50 for h5-HT transporter (Homo sapiens), one per item.
pIC50: −log10 of the molar value.
measured parameter: pIC50

These solved cases illustrate the format of a correct answer.
molecule	measured parameter	value
CC(=Cc1cccc(F)c1)CN1CCN(CC2ON=C3c4ccc(N(C)CCO)cc4OCC32)CC1 (centres unmarked) [Compound 35]	pIC50	8.10
COc1cc2c(cc1N1CCCC1C)OCC1C2=NOC1CN1CCN(CC(C)=Cc2ccc(F)cc2)CC1 (centres unmarked) [Compound 101]	pIC50	6.80
CNc1ccc2c(c1)OCC1C2=NOC1CN1CCN(CC(C)=Cc2ccccc2)CC1 (centres unmarked) [Compound 87]	pIC50	7.30

A = COc1cc2c(cc1N1CCOCC1)OCC1C2=NOC1CN1CCN(CC(C)=Cc2ccc(F)cc2)CC1 (centres unmarked) [Compound 85]
B = COc1ccc(NC(=O)Nc2ccc3c(c2)OCC2C3=NOC2CN2CCN(C/C(C)=C/c3ccccc3)CC2)cc1OC (centres unmarked) [Compound 7]
C = CC(=Cc1ccccc1)CN1CCN(CC2ON=C3c4ccc(Nc5ccc(F)cc5)cc4OCC32)CC1 (centres unmarked) [Compound 42]
D = CC(=Cc1ccc(F)cc1)CN1CCN(CC2ON=C3c4ccc(NCCN5CCOCC5)cc4OCC32)CC1 (centres unmarked) [Compound 30]
E = COc1cc2c(cc1NCCN(C)C)OCC1C2=NOC1CN1CCN(C/C(C)=C/c2ccccc2)CC1 (centres unmarked) [Compound 9]
(Q) Rank descending by pIC50. Form entry: labels listed in requested order.
(A) E, D, B, A, C

====

melting point by entry:

Consider the following illustrative entries.
molecule	melting point
CC(=Cc1ccccc1)CN1CCN(CC2ON=C3c4ccc(NC(=O)Nc5ccccc5)cc4OCC32)CC1 (stereo not shown)	180.3 to 181.6 °C
CC(=Cc1ccccc1)CN1CCN(CC2ON=C3c4ccc(Nc5cccc(C#N)c5)cc4OCC32)CC1 (stereo not shown)	152.7 to 162.6 °C
CC(=Cc1ccccc1)CN1CCN(CC2ON=C3c4ccc(NC(=O)NC(C)(C)C)cc4OCC32)CC1 (stereo not shown)	98.4 to 113.5 °C

The molecule identified as CNCCN(C)c1ccc2c(c1)OCC1C2=NOC1CN1CCN(CC(C)=Cc2ccc(F)cc2)CC1 (stereo not shown) registered its melting point at 98.4 to 105.3 °C

====

Structures can show the parent of a compound that is named as a salt.
The following compounds are shown together with reported melting point values.

compound	measured parameter	value
C/C(=C\CN1CCN(CC2ON=C3c4cc5c(cc4OCC32)NCCO5)CC1)c1ccccc1 (stereo not drawn)	melting point	130.4 to 146.4 °C

melting point recorded for this compound, CCOC(=O)CNC(=O)Nc1ccc2c(c1)OCC1C2=NOC1CN1CCN(CC(C)=Cc2ccccc2)CC1 (stereo not drawn) , is 175.3 to 177 °C

Query CC(=Cc1ccc(F)cc1)CN1CCN(CC2ON=C3c4ccc(N5CCCCC5)cc4OCC32)CC1 (stereo not drawn) yields melting point of 168.2 to 169.4 °C

compound CC(=Cc1ccccc1)CN1CCN(CC2ON=C3c4ccc(Nc5ccccc5C)cc4OCC32)CC1 (stereo not drawn) , melting point observed: 133.3 to 148.9 °C

So, CNCCNc1ccc2c(c1)OCC1C2=NOC1CN1CCN(CC(C)=Cc2ccc(F)cc2)CC1 (stereo not drawn) (as salt: HCl) ? Its melting point was 199 to 235.5 °C

Entry COc1cc2c(cc1N1CCN(C)CC1)OCC1C2=NOC1CN1CCN(CC(C)=Cc2ccccc2)CC1 (stereo not drawn) — recorded melting point = 142.8 to 144.4 °C

What the record says about CC(=Cc1ccc(F)cc1)CN1CCN(CC2ON=C3c4ccc(N5CCN(CC=Cc6ccccc6)CC5)cc4OCC32)CC1 (stereo not drawn) : melting point is 154.9 to 160.4 °C

====

biological target: hα2C receptor (Homo sapiens); construct: expressed in transfected cells; host or cells: CHO cells; assay: Radioligand binding experiment for α2C-adrenergic receptor ([3H]-raulwolscine); details: CHO cell membranes with human α2C receptor, [3H]raulwolscine 1 nM; read-out: pIC50 α2C (converted)
Sequence (P18825 whole entry): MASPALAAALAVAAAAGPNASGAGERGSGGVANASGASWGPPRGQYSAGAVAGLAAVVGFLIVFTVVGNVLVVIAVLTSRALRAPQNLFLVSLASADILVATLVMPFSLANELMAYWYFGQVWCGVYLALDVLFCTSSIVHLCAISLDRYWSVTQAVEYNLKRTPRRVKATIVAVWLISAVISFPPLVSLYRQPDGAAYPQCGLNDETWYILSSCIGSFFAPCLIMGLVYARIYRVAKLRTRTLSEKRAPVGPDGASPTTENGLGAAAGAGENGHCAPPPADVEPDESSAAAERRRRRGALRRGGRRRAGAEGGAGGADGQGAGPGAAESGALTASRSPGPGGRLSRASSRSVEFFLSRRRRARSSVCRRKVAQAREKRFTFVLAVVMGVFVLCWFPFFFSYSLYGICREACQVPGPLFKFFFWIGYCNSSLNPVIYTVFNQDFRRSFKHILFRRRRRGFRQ
measured parameter: IC50 (nM)

compound	value
c1ccc2cc(CN3CCN(CC4ON=C5c6cc7c(cc6OCC54)NCCO7)CC3)ccc2c1 (stereo not shown) [Compound 92]	2.51

a = CC(=Cc1ccccc1)CN1CCN(CC2ON=C3c4ccc(N(C)Cc5ccccc5)cc4OCC32)CC1 (stereo not shown) [Compound 47]
b = CC(=Cc1ccc(F)cc1)CN1CCN(CC2ON=C3c4ccc(N5CCCCCC5)cc4OCC32)CC1 (stereo not shown) [Compound 125]
c = CC(=Cc1ccc(F)cc1)CN1CCN(CC2ON=C3c4ccc(N(C)CCO)cc4OCC32)CC1 (stereo not shown) [Compound 38]
(Q) Order each entry by recorded IC50, climbing from the minimum. List each label, following the requested order.
(A) c, a, b

====

Here's what we have: pIC50 numbers for h5-HT transporter (Homo sapiens, UniProt P31645).
pIC50: −log10 of the molar value.
measured parameter: pIC50

Here are 3 compounds together with their reported answers.
compound	assayed system	pIC50
COc1cc2c(cc1NCCN)OCC1C2=NOC1CN1CCN(CC(C)=Cc2ccc(F)cc2)CC1 (stereo not drawn)	h5-HT transporter (Homo sapiens, UniProt P31645)	7.80
CC(=Cc1ccccc1)CN1CCN(CC2ON=C3c4ccc(NC(=O)NC(C)(C)C)cc4OCC32)CC1 (stereo not drawn)	h5-HT transporter (Homo sapiens, UniProt P31645)	7.70
CCOC(=O)C1CCN(c2ccc3c(c2)OCC2C3=NOC2CN2CCN(CC(C)=Cc3ccc(F)cc3)CC2)CC1 (stereo not drawn)	h5-HT transporter (Homo sapiens, UniProt P31645)	6.20

A = COc1cc2c(cc1N(C)CCN(C)C)OCC1C2=NOC1CN1CCN(C/C(C)=C/c2ccccc2)CC1 (stereo not drawn)
B = CC(=Cc1ccccc1)CN1CCN(CC2ON=C3c4ccc(Nc5ccccc5)cc4OCC32)CC1 (stereo not drawn)
(Q) Which is greater in pIC50, the first item A or the second item B ? Give the label of your selection.
(A) A

A = CCC(C)(C)NCCN(C)c1ccc2c(c1)OCC1C2=NOC1CN1CCN(CC(C)=Cc2ccc(F)cc2)CC1 (stereo not drawn)
B = CC(=Cc1ccc(F)cc1)CN1CCN(CC2ON=C3c4ccc(NC(N)=O)cc4OCC32)CC1 (stereo not drawn)
C = CCC(C)NC(=O)OCCN(C)c1ccc2c(c1)OCC1C2=NOC1CN1CCN(CC(C)=Cc2ccc(F)cc2)CC1 (stereo not drawn)
D = CC(=Cc1ccccc1)CN1CCN(CC2ON=C3c4ccc(N(C)Cc5ccccc5)cc4OCC32)CC1 (stereo not drawn)
E = C=CC(=O)Nc1cc2c(cc1OC)C1=NOC(CN3CCN(CC(C)=Cc4ccc(F)cc4)CC3)C1CO2 (stereo not drawn)
(Q) Ascending sort, pIC50. To answer, arrange all of the labels according to the requested order.
(A) C, D, E, B, A

A = CCNC(=O)Nc1ccc2c(c1)OCC1C2=NOC1CN1CCN(CC(C)=Cc2ccccc2)CC1 (stereo not drawn)
B = C=CC(=O)Nc1ccc2c(c1)OCC1C2=NOC1CN1CCN(CC(C)=Cc2ccccc2)CC1 (stereo not drawn)
(Q) Endpoint returns whichever of A and B has the numerically higher pIC50. Give the chosen item's label as your response.
(A) A

====

Biological target: hα2A receptor (Homo sapiens, UniProt P08913)
Construct: expressed in transfected cells; host or cells: CHO cells
Sequence (P08913 1-465): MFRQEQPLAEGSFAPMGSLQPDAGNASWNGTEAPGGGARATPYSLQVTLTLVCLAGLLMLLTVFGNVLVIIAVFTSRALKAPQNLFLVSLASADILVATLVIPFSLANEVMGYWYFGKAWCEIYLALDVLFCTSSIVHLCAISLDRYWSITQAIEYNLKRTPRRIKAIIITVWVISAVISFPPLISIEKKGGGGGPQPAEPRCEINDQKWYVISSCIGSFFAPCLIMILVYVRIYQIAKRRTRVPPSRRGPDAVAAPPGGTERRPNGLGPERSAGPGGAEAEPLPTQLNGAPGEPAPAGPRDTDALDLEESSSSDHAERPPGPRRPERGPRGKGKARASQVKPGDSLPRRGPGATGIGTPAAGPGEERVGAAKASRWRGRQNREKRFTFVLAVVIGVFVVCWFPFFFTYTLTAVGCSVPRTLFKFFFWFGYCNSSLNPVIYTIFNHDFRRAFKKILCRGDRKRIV
Assay: Radioligand binding experiment for α2A-adrenergic receptor ([3H]-raulwolscine)
Details: CHO cell membranes with human α2A receptor, [3H]raulwolscine 1 nM; read-out: pIC50 α2A (converted)
measured parameter: IC50 (nM)

See these solved cases before continuing.
compound	unit descriptor	IC50
C/C(=C\c1ccc(F)cc1)CN1CCN(CC2ON=C3c4cc5c(cc4OCC32)NCCO5)CC1 (stereo not drawn)	nM	15.8
CC(=Cc1ccc(F)cc1)CN1CCN(CC2ON=C3c4ccc(N(C)CCOC(=O)CC(C)(C)C)cc4OCC32)CC1 (stereo not drawn)	nM	251
CC(=Cc1ccccc1)CN1CCN(CC2ON=C3c4ccc(N(C)Cc5ccccc5)cc4OCC32)CC1 (stereo not drawn) [Compound 47]	nM	2.51
C/C(=C\c1ccccc1)CN1CCN(CC2ON=C3c4ccc(NCc5ccccc5)cc4OCC32)CC1 (stereo not drawn)	nM	15.8
COc1cc2c(cc1N1CCOCC1)OCC1C2=NOC1CN1CCN(CC(C)=Cc2cccc(F)c2)CC1 (stereo not drawn)	nM	7.94
COc1cc2c(cc1NCCN)OCC1C2=NOC1CN1CCN(CC(C)=Cc2ccc(F)cc2)CC1 (stereo not drawn)	nM	31.6

A = CC(=Cc1ccc(F)cc1)CN1CCN(CC2ON=C3c4ccc(N(C)CCN)cc4OCC32)CC1 (stereo not drawn)
B = COc1ccc(Nc2ccc3c(c2)OCC2C3=NOC2CN2CCN(CC(C)=Cc3ccc(F)cc3)CC2)cc1 (stereo not drawn)
(Q) Consider A and B . Which of these has its IC50 at a higher number? # respond with the chosen item's label
(A) B
(B: 398 nM, A: 12.6 nM)
